Reference for the values: paper PMC7508466

- Study Target: human sst2 receptor (Homo sapiens, UniProt P30874)
- Sequence (P30874 whole entry): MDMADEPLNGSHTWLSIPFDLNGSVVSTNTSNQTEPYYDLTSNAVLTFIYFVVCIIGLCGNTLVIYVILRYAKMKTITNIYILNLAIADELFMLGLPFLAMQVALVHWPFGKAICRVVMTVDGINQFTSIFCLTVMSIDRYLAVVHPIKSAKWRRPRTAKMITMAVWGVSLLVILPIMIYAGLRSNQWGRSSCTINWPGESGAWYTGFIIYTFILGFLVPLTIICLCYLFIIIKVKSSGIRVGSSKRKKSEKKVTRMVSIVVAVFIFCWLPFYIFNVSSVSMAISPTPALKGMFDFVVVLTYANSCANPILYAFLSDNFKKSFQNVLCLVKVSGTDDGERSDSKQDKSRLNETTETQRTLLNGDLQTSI
- Experimental Details: cAMP functional assay in CHO-K1 cells stably expressing human sst2 receptor
- Format: cell-based
- Condition Notes: human sst2, CHO-K1 cells, cAMP; average of two or more independent measurements
Please respond with reported sst2 pEC50±SEM for every item in the list.
Give bare numbers.

Illustrative cases are given below, each with its answer.
{"columns": ["Compound", "Study Target", "Measured Attribute", "Val"],
 "data": [
  ["Cc1cc(Cl)cc(N2C=Nc3cc(C)c(-c4cncc(C#N)c4)cc3C2C(=O)N(C)C[C@@H]2CCCN2)c1 (stereo partly drawn)", "human sst2 receptor (Homo sapiens, UniProt P30874)", "sst2 pEC50±SEM", 7.9],
  ["Cc1cc(Cl)cc(N2C=Nc3cc(C)c(-c4cccc(C#N)c4)cc3C2C(=O)N(C)C[C@@H]2CCCN2)c1 (stereo partly drawn)", "human sst2 receptor (Homo sapiens, UniProt P30874)", "sst2 pEC50±SEM", 8.3]
]}

Okay, next one:
Kindly note the recorded sst2 pEC50±SEM for Cc1cc(Cl)cc(N2C=Nc3cc(C)c(-c4ccccc4)cc3C2C(=O)N(C)C[C@@H]2CCCN2)c1 (stereo partly drawn) , which is 7.3
